These entries and their values trace back to PubChem BioAssay (NCI).

- System: SK-MEL-28 melanoma
- MEASUREMENT DESCRIPTION: NCI-60 one-dose screen, 48 h (100 = growth as untreated, 0 = no growth, -100 = all killed)
- STUDY CONDITIONS: 10 µM unless noted
This is part of a sample that, as a whole, favours compounds with a hit. Of some 83,000 tested, about 20% had one in any assay. The source made the active and inactive calls. How the source made its calls: active means growth percent below 10; inactive means the rest.
OBSERVATION TYPE: growth

>>> value_reported("Oc1ccc(-c2nc3ccc4[nH]ncc4c3c3c2CCCC3)c(F)c1")
"17.5% (inactive)"
>>> value_reported("CCOC(=O)C/C(=N\\Nc1cc(=O)[nH]c2ccc(OC)cc12)C(=O)OCC")
"99.6% (inactive)"
>>> value_reported("COCCn1cc(-c2nc(-c3c[nH]c4ncccc34)cs2)c2ccccc21")
"89.4% (inactive)"
>>> value_reported("COCCn1cc(-c2nc(-c3cn(CCOC)c4ncccc34)cs2)c2cc(F)ccc21")
"91% (inactive)"
>>> value_reported("O=C(c1c[nH]c2ccccc12)c1n[nH]c(=S)n1-c1ccc([N+](=O)[O-])cc1")
"107% (inactive)"
>>> value_reported("COc1cc2ncnc(Nc3ccc(F)c(Cl)c3)c2cc1OCC(=O)N1CCOCC1")
"106% (inactive)"
>>> value_reported("O=C(Nc1cccnc1Nc1ccc(Cl)cc1)c1cn(Cc2cccc(Oc3ccccc3)c2)nn1")
"61.7% (inactive)"
>>> value_reported("COc1ccccc1/C=C/C(=O)Nc1ccc(F)cc1")
"108% (inactive)"
>>> value_reported("C=C1C(=O)O[C@@H]2C3C(=C(C)CC[C@@H]12)CC1O[C@]13C (stereo not given in full)")
"90.4% [6.75 µM] (inactive)"
>>> value_reported("CCOC(=O)/C=C1\\S/C(=N\\Nc2cc(=O)[nH]c3ccc(Br)cc23)N(c2ccccc2)C1=O")
"95.3% (inactive)"

---

- Tested on: OVCAR-5 ovarian
- MEASUREMENT DESCRIPTION: NCI-60 one-dose screen, 48 h
- STUDY CONDITIONS: 10 µM unless noted
This is part of a sample that, as a whole, favours compounds with a hit. Of some 83,000 tested, about 20% had one in any assay. The source made the active and inactive calls. The calls were made as follows: active = growth percent below 10; inactive = the rest.
Outcomes: active, inactive

>>> class_name("Fc1ccc2[nH]cc(-c3nc(-c4c[nH]c5c(Cl)nccc45)cs3)c2c1")
"inactive"
>>> class_name("CNCC[C@H](Oc1cccc2ccccc12)c1cccs1")
"inactive"
>>> class_name("Nc1cc(C(=O)O)cc(-n2c(O)c(C=C3N=c4ccccc4=N3)sc2=S)c1")
"inactive"
>>> class_name("Cc1nc2sc(C(=O)Nc3ccccn3)c(N)c2cc1C(C)O (stereo not given)")
"inactive"
>>> class_name("Cc1sc2nc(NCCN)[nH]c(=O)c2c1C")
"inactive"
>>> class_name("Cc1ccc(C(=O)c2ccc(CC(=O)N/N=C/c3cccc(O)c3O)n2C)cc1")
"inactive"
>>> class_name("CC(C)n1c2ccc(Br)cc2c2c3c(c4c5ccccc5ccc4c21)C(=O)NC3=O")
"inactive"
>>> class_name("CCOC(=O)CC[C@H](NC(=O)c1ccc(N(C)Cc2cnc3nc(N)nc(N)c3n2)c2ccccc12)C(=O)OCC")
"inactive"
>>> class_name("COc1cc(/C=C/c2cc(/C=C/c3ccc(O)c(OC)c3)n(C(=O)Nc3ccc(Cl)cc3)n2)ccc1O")
"inactive"
>>> class_name("Nc1ccc(Br)cc1C(F)(F)F")
"inactive"
>>> class_name("COc1cc(/C=N/NC(=O)c2ccc(-n3cc(-c4ccccc4)nn3)cc2)cc(OC)c1OC")
"inactive"
>>> class_name("CCCCCc1ccc(S(=O)(=O)Nc2cc(-c3csc(NC(C)=O)n3)ccc2N2CCN(C)CC2)cc1")
"inactive"
>>> class_name("CC1(C)N=C(N)N=C(N)N1c1ccc(S(=O)(=O)Nc2nccs2)cc1")
"inactive"
>>> class_name("COCCn1cc(-c2nc(-c3c[nH]c4ncccc34)cs2)c2ccccc21")
"inactive"
>>> class_name("CN(C)CCCn1c2c(c3ccncc3c1=O)C(=O)c1ccccc1-2")
"active"
>>> class_name("Cc1cc(=O)n(C(=S)Nc2ccc(Cl)cc2)c2cc(O)ccc12")
"inactive"
>>> class_name("Cc1nc(N/N=C/c2cn(-c3ccccc3)nc2-c2cc3ccccc3oc2=O)sc1N=Nc1ccccc1")
"inactive"
>>> class_name("O=S(=O)(N=C1C(Cl)=C(Cl)C(=NS(=O)(=O)c2ccccc2)C(Cl)=C1Cl)c1ccccc1")
"inactive"
>>> class_name("COC(=O)/C=C1/SC(=NCc2ccccc2)N(CCc2c[nH]c3ccccc23)C1=O")
"inactive"
>>> class_name("CCOC(=O)/C=C1\\S/C(=N\\Nc2cc(=O)[nH]c3ccc(Br)cc23)N(c2ccccc2)C1=O")
"inactive"
